assay: Clearance in rat liver microsomes assessed as drug turnover level at 1 uM incubated for 30 mins in presence of NADPH; format: ADME, Microsome; conditions: read-out: CLH
reportedMetric: log10 of microsomal CLint at 1 µM (log10 of the value in µL/min/mg)
All values: base-10 log of microsomal CLint at 1 µM in µL/min/mg.

Observe how each entry below is paired with its result.
                                   molecule                     reportedmetric  recordednumber
0  CNC(=O)c1c(-c2ccccc2)c([C@H](C)Nc2ncnc(N)c2C#N)nc2ccc(F)cc12  log10 of microsomal CLint at 1 µM            1.18
1  C[C@H](Nc1ncnc(N)c1C#N)c1nc2ccc(F)cc2c(C(=O)N2CCNCC2)c1-c1ccccc1  log10 of microsomal CLint at 1 µM            1.70
2  CC(Nc1ncnc(N)c1C#N)c1nc2ccc(F)cc2c(C(=O)N2CCNCC2)c1-c1ccccn1 (racemic)  log10 of microsomal CLint at 1 µM            1.23
3  C[C@H](Nc1ncnc(N)c1C#N)c1nc2ccc(F)cc2c(C(=O)N(C)C)c1-c1ccccc1  log10 of microsomal CLint at 1 µM            2.63

Now let's try a different one.
Input: Which log10 of microsomal CLint at 1 µM is reported for this molecule? C[C@H](Nc1ncnc(N)c1C#N)c1nc2ccc(F)cc2c(C(=O)N2CCS(=O)(=O)CC2)c1-c1ccccc1
Output: 1.89

----------
We begin with a simple list: items and their reported clearance.
assay: Clearance in Sprague-Dawley rat at 0.5 mg/kg, iv by LC-MS method; type: ADME, organism-based; details: in vivo
All answers are understood in L/h/kg, so give the number only.

Observe how each entry below is paired with its result.
>>> print(df.to_string())
                            smilesstructure    unit  recordednumber
0  CCNC(=O)c1c(-c2ccccn2)c([C@H](C)Nc2ncnc(N)c2C#N)nc2ccc(F)cc12  L/h/kg             0.2
1  CNCCNC(=O)c1c(-c2ccccn2)c([C@H](C)Nc2ncnc(N)c2C#N)nc2ccc(F)cc12  L/h/kg               1

Input: Which clearance is reported for this compound? C[C@H](Nc1ncnc(N)c1C#N)c1nc2ccc(F)cc2c(C(=O)N2CCNCC2)c1-c1ccccc1
Output: 0.9

----------
We begin with a simple list: items and their reported microsomal CLint at 1 µM.
test: Clearance in human liver microsomes assessed as drug turnover level at 1 uM incubated for 30 mins in presence of NADPH; assay type: ADME, Microsome; details: read-out: CLH
All answers are understood in µL/min/mg, so give the number only.

Observe how each entry below is paired with its result.
                            smilesstructure            reportedmetric  recordednumber
0  C[C@H](Nc1ncnc(N)c1C#N)c1nc2ccc(F)cc2c(C(=O)N2CCS(=O)(=O)CC2)c1-c1ccccc1  microsomal CLint at 1 µM              62
1  CCNC(=O)c1c(-c2ccccc2)c([C@H](C)Nc2ncnc(N)c2C#N)nc2ccc(F)cc12  microsomal CLint at 1 µM              22
2  C[C@H](Nc1ncnc(N)c1C#N)c1nc2ccc(F)cc2c(C(=O)N2CC(O)C2)c1-c1ccccc1  microsomal CLint at 1 µM              40

Now let's try a different one.
Input: Which microsomal CLint at 1 µM is reported for this molecule? C[C@H](Nc1ncnc(N)c1C#N)c1nc2ccc(F)cc2c(-c2ccccn2)c1-c1ccccn1
Output: 47
